Reference source: PubChem BioAssay (NCI)

# Tested on: NCI-H23 lung
# assayExplanation: NCI tumour cell line growth inhibition, 48 h
# maps each entry to its TGI
parameterMeasured: TGI

compound=CCCN(CCC)C(=O)C1=Cc2ccc(-c3ccc(C(=O)N4CCCC4)cc3)cc2N=C(N)C1 parametermeasured=TGI value="38.9 µM"
compound="CC1(c2ccc(F)cc2)CC(c2ccc(F)cc2)=C(C#N)C(=C(C#N)C#N)N1 (stereo unspecified)" parametermeasured=TGI value="36.5 µM"
compound="CCOc1ccc(N=NC2C(=O)N(C(=O)CC(=O)Nc3ccccc3OC)N=C2C)cc1 (stereo unspecified)" parametermeasured=TGI value="> 100 µM"
compound=CNC(=O)CN(CC(=O)NC)C(=O)NC parametermeasured=TGI value="> 100 µM"
compound=CN(C)c1ccc(-c2cc(=O)c3cc4c(cc3[nH]2)OCO4)cc1 parametermeasured=TGI value="> 100 µM"
compound=O=C(O)CN1CCNCCN(CP(=O)(O)O)CC1 parametermeasured=TGI value="> 100 µM"
compound="COc1ccc(N2C(=O)C3c4[nH]c5ccccc5c4C4CCCCCCCCCCC4C3C2=O)cc1 (stereo unspecified)" parametermeasured=TGI value="> 33.1 µM"
compound=CSc1c(C(=O)Nc2ccc(Cl)cc2)c(N)nn1-c1ccccc1 parametermeasured=TGI value="> 100 µM"
compound="COc1cccc(C2c3cc4c(cc3OC(C)(O)C2C)OCO4)c1O (stereo unspecified)" parametermeasured=TGI value="12.4 µM"
compound="C[C@H]1O[C@@H](c2c(O)ccc3ccccc23)C[C@@H](N(C)C)C1O (stereo partly specified)" parametermeasured=TGI value="> 100 µM"
compound="CC(=O)Oc1ccc2c(c1)Oc1cc(C(C)=O)ccc1C21OC(=O)c2ccccc21 (stereo unspecified)" parametermeasured=TGI value="> 100 µM"

---

The entries below come with measured TGI values attached.
# System: SF-295 CNS
# assayExplanation: NCI tumour cell line growth inhibition, 48 h
parameterMeasured: TGI

molecule=O=C(O)C(CP(=O)(O)O)=C(Cl)Cl value="> 100 µM"
molecule="O=C1CCCCC1CN1CCCC1 (centres undefined)" value="> 100 µM"
molecule="O=C1CC(c2ccc(N3CCOCC3)cc2)(c2ccsc2)NC(=O)C1Sc1ccccc1Cl (centres undefined)" value="> 100 µM"
molecule=C=C1C(=O)O[C@H]2[C@H]1CC/C(COC(=O)CCCCC(=O)OC/C1=C/CC[C@@]3(C)O[C@H]3[C@H]3OC(=O)C(=C)[C@@H]3CC1)=C\CC[C@@]1(C)O[C@@H]21 value="> 100 µM"
molecule="C/C(=C\\C(C)COCc1ccccc1)[C@H](COCc1ccccc1)OCc1ccccc1 (some centres undefined)" value="> 100 µM"
molecule=O=c1cc(-c2ccccc2)[nH]c2cc(F)c(F)cc12 value="> 100 µM"
molecule=CCSc1nc(N)c2c(-c3ccc(OC)c(OC)c3)c3c(nc2n1)CCCC3 value="> 100 µM"
molecule=c1ccc(Cn2cc3c(c2-c2ccccc2)CCc2cnoc2-3)cc1 value="31.5 µM"
molecule="CC(C)=CC1C(COC(=O)c2cc3c(cc2Cl)OCO3)C1(C)C (centres undefined)" value="> 100 µM"
molecule="Cc1ccc(S(=O)(=O)N2CC3OC(C)(C)OC3C2CO)cc1 (centres undefined)" value="> 100 µM"
molecule=[O-]c1c2c(nn1-c1ccccc1)c1ccccc1c[n+]2Cc1ccccc1 value="> 100 µM"
molecule="COc1c(Cl)c2c(c(OC)c1OC)-c1ccc(OC)c(=O)c(Cl)c1C(NC(C)=O)CC2 (centres undefined)" value="0.49 µM"
molecule=COCc1nc2c(OC)cc(-c3nc4nc(N5CCN(C)CC5)ccc4[nH]3)c(OC)c2[nH]1 value="> 100 µM"
molecule=Cc1cc2c(cc1Cl)SC1=CC(=O)N(c3ccccc3)C1=NS2(=O)=O value="> 100 µM"
molecule=CC1=C[C@H]2c3c(c(O)c(O)c4oc5c(C)cccc5c(=O)c34)[C@H](c3cc(O)c(O)c4oc5c(C)cccc5c(=O)c34)[C@H]2C(C)(C)C1 value="2.84 µM"
molecule=CC1=C(C)C(=O)O[C@@H]([C@](C)(O)[C@]2(O)CC[C@@]3(O)[C@@H]4C[C@H]5O[C@]56[C@@H](O)C=CC(=O)[C@]6(C)[C@H]4CC[C@]23C)C1 value="19.5 µM"
molecule=Oc1ccc(-c2nnc3sc(-c4ccc(F)c(Oc5ccccc5)c4)nn23)cc1 value="59.9 µM"
molecule=COc1cccc2c1CCc1ccccc1CC2=O value="> 100 µM"
molecule=CCC[CH2][Sn]1([CH2]CCC)[O]C(=O)c2cc(I)cc(I)c2[O]1 value="3.53 µM"
